Tested on: CAKI-1 renal
Assay protocol: NCI tumour cell line growth inhibition, 48 h
Listed below: TGI values for each entry.

# Compound, Study system, TGI
records = [
    ("CCN1C(=O)C(N=[N+]=[N-])(c2ccccc2)C(=O)c2ccccc21 (configuration not stated)", "CAKI-1 renal", "> 100 µM"),
    ("CCCCCCCCCCCCCCC[C@@H](O)C[N+](C)(C)CCO", "CAKI-1 renal", "4.1 µM"),
    ("O=C1CCCC(=O)C1C(=O)c1ccc(C(F)(F)F)cc1[N+](=O)[O-]", "CAKI-1 renal", "> 100 µM"),
    ("O=c1[nH]c(=O)n(C2OC(CO)C(O)C2O)cc1OCc1ccccc1 (configuration not stated)", "CAKI-1 renal", "> 100 µM"),
    ("OCCN1CCN(c2nc(Nc3ccc(-c4nc5ccccc5[nH]4)cc3)c3cn[nH]c3n2)CC1", "CAKI-1 renal", "3.13 µM"),
    ("O=C1C(Cl)=C(Nc2ccccn2)C(=O)c2ccccc21", "CAKI-1 renal", "18.8 µM"),
    ("ClCCCC1COc2ccccc2O1 (configuration not stated)", "CAKI-1 renal", "> 100 µM"),
    ("COc1ccc(C(=O)c2cc(OC)c(OC)c(OC)c2)cc1/C=C/C(=O)c1ccc2c(c1)OCO2", "CAKI-1 renal", "> 100 µM"),
    ("COc1cc(C(=O)Nc2cc(O)c(C/C=C(\\C)CCC=C(C)C)c(O)c2)cc2c1O[C@]1(C)CC[C@@H](O)C(C)(C)[C@H]1C2", "CAKI-1 renal", "11.9 µM"),
    ("Clc1ccc2c(Cl)nc(-c3ccccc3)nc2c1", "CAKI-1 renal", "97.3 µM"),
    ("Cc1[nH]c2ccccc2c1C1=CC(=O)C=CC1=O", "CAKI-1 renal", "22.6 µM"),
    ("N#CC(C#N)=Cc1ccc(Oc2ccccc2)cc1", "CAKI-1 renal", "> 100 µM"),
    ("O=c1[nH]cnc2c1ncn2C1SC(CO)C(O)C1O (configuration not stated)", "CAKI-1 renal", "> 100 µM"),
    ("COCN1C(=O)[C@@H]2CCCN2C(=O)c2cc(Cl)ccc21", "CAKI-1 renal", "> 100 µM"),
    ("CC(=O)Nc1ccc(S(=O)(=O)c2ccc(NC(C)=O)cc2)cc1", "CAKI-1 renal", "> 100 µM"),
    ("C=CCN1C[C@@H](C)N([C@@H](c2ccccc2)c2ccc(C(=O)N(CC)CC)cc2)C[C@@H]1C", "CAKI-1 renal", "> 100 µM"),
    ("Cc1ccc(N=Nc2c(C)nn(C(=O)CC(=O)Nc3ccc(Cl)cc3)c2C)cc1C", "CAKI-1 renal", "> 100 µM"),
    ("O=[N+]([O-])c1ccc(NN=C2c3ccccc3Cc3ccccc32)c([N+](=O)[O-])c1", "CAKI-1 renal", "> 100 µM"),
    ("CCOC(=O)/C(=C/c1ccc(Cl)cc1)N(CC)CC", "CAKI-1 renal", "> 100 µM"),
    ("COc1ccc2c(c1)c(-c1nc(-c3cn(C)c4ncccc34)cs1)cn2CCCCN1CCOCC1", "CAKI-1 renal", "2.89 µM"),
    ("CCCCCCCCCCCCCC(=O)OC1C(CO)OC(=O)C1O (configuration not stated)", "CAKI-1 renal", "> 100 µM"),
    ("CCC[CH2][Ge]([CH2]CCC)([CH2]CCC)[O]C(=O)C(OC(C)=O)c1ccccc1 (configuration not stated)", "CAKI-1 renal", "47.4 µM"),
]
